Test system: Italian ryegrass (Lolium multiflorum)
assay protocol: Test D pre-/postemergence plant response
Type: in vivo
details: Lolium multiflorum, pre-emergence; Preemergence; 16 g ai/ha; scale 0 to 100 (0 no effect, 100 complete control); read-out: Plant response rating, Ryegrass, Italian
quantity name: pest or weed control at 16 g/ha

Recorded pest or weed control at 16 g/ha, per entry:
[
  {
    "compound": "N#Cc1cccc(Oc2ncc(Cl)cn2)c1-c1cc(C(F)(F)F)ccn1 [Compound 158]",
    "target": "Italian ryegrass (Lolium multiflorum)",
    "pest or weed control at 16 g/ha": "0%"
  },
  {
    "compound": "FC(F)c1cc(-c2ccccc2Oc2ncc(Cl)cn2)no1 [Compound 35]",
    "target": "Italian ryegrass (Lolium multiflorum)",
    "pest or weed control at 16 g/ha": "0%"
  },
  {
    "compound": "Fc1cccc(Oc2ncc(Cl)cn2)c1-c1cc(C(F)F)on1 [Compound 55]",
    "target": "Italian ryegrass (Lolium multiflorum)",
    "pest or weed control at 16 g/ha": "15%"
  },
  {
    "compound": "FCc1cc(-c2ccccc2Oc2ncc(Cl)cn2)no1 [Compound 32]",
    "target": "Italian ryegrass (Lolium multiflorum)",
    "pest or weed control at 16 g/ha": "0%"
  }
]

// switching to the query compound
Task: Tell us which pest or weed control at 16 g/ha value is on record for FC(F)c1cc(-c2ccccc2Oc2ncc(Cl)cn2)on1 [Compound 53]
Result: 0%
